- System: DU-145 prostate
- protocol notes: NCI tumour cell line growth inhibition, 48 h
Catalogue of TGI readings, one per entry.

Here's what some known entries look like.
Nc1nc(-c2ccccc2N=NN2CCCC2)nc2ccccc12 :: 16.5 µM
CCC(=O)O[C@H]1CC[C@H]2[C@@H]3CC[C@H]4CC(=O)[C@H](C)C[C@]4(C)[C@H]3CC[C@]12C :: > 100 µM
C/C(=C\c1ccccn1)c1ccccn1 :: > 100 µM
O=C1NC(=O)/C(=C/c2ccc(S(=O)(=O)N/N=C/c3ccc(Cl)cc3)cc2)N1 :: > 100 µM

Query :: # input compound: O=C(CSCC(=O)N/N=C/c1cccs1)N/N=C/c1cccs1 ; wanted: its TGI
Result :: > 100 µM

Query :: # input compound: Cc1ccc(C(=O)O)c(CC2Cc3c(C)cccc3C2=O)c1 (stereo not given) ; wanted: its TGI
Result :: > 100 µM
